# TARGET OR SYSTEM: NADPH oxidase 5 (Homo sapiens)
# ASSAY SUMMARY: NOX5-dependent H2O2 signal modulators, primary screen, NOX inhibitor project, cell-based, HEK293-NOX5, Amplex Red fluorescence (AID 1161)
# MEASUREMENT PARAMETERS: HEK293-NOX5, ionomycin, 45 min, higher = more signal
QUANTITY MEASURED: z-score
Number only, no unit.

[[record]]
compound = "COc1cc(NN2C(C(O)c3ccco3)C=CC3C(=O)N(c4ccccc4)C(=O)C32)cc(OC)c1OC (stereo not drawn)"
endpoint_value = -5.73

[[record]]
compound = "C=C(CC1([C@@H](NP(=O)(c2ccccc2)c2ccccc2)[C@H]2C[C@@H]2CCCC)CC1)c1ccccc1"
endpoint_value = -2.95

[[record]]
compound = "COc1cc(C(O)C2C=CC3C(=O)NC(=O)C3N2Nc2ccccn2)cc(OC)c1OC (stereo not drawn)"
endpoint_value = -2.9

[[record]]
compound = "CO[C@H]1O[C@H](CO)[C@@H](OC(=O)Nc2ccccc2)[C@H](OC(=O)Nc2ccccc2)[C@@H]1OC(=O)Nc1ccccc1"
endpoint_value = -1.13


For reference, reported z-score for `O=C(NC1CC1)[C@@H]1c2ccccc2C(=O)N(Cc2ccccc2Cl)[C@H]1c1ccc(CO)cc1` stands at 0.33

For reference, reported z-score for `CCCC[C@@H]1C[C@H]1[C@@H](NC(=O)c1ccccc1)c1ccc(C(=O)OC)cc1` stands at -0.585

For reference, reported z-score for `C=C(CCCC)/C(=C/C[C@H](OC(=O)c1ccncc1)c1ccccc1OCCO)c1cnc2ccccc2c1` stands at -1.45

For reference, reported z-score for `O=C(c1ccccc1)N1C(=O)[C@]2(COC(c3ccc(OCCCO)cc3)=N2)Cc2ccccc21` stands at -1.69

* * *

# ASSAY SUMMARY: binders of probe aHhip on microarray, primary screen, stem cell growth factor project, biochemical, small-molecule microarray, fluorescence 635/667 (AID 1087);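 further: score merges spot fluorescence at 667nm with spot signal to noise ratio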
# MEASUREMENT PARAMETERS: higher = more signal
Below is a list of entries, each paired with its recorded composite z-score value.

For reference, reported composite z-score for `COCCOC(=O)N1C(=O)[C@@]2(c3ccccc31)[C@H](C(=O)N1CCc3cc(OC)c(OC)cc3C1)[C@H]1C(=O)O[C@H](c3ccccc3)[C@H](c3ccccc3)N1[C@@H]2c1ccc(OCCO)cc1` stands at -0.0085

For reference, reported composite z-score for `C=CCN1C(=O)[C@]2(O[C@H](CCn3cc([C@H](O)c4ccccc4)nn3)[C@@H]([Si](C)(C)c3ccc(OC)cc3)[C@@H]2C)c2ccccc21` stands at -0.264

For reference, reported composite z-score for `O=C1C[C@]2(c3ccc([N+](=O)[O-])cc3)C(=O)N(CC(F)(F)F)c3cc(CO)ccc3[C@H]2N1C1CCCCC1` stands at -0.226

* * *

# ASSAY SUMMARY: PSAC antagonists in infected red cells, primary screen, cell-based, P. falciparum Indochina, OD700, 18 h (AID 1157)
# MEASUREMENT PARAMETERS: P. falciparum Indochina infected erythrocytes, osmotic lysis OD700, 18 h; higher = more signal, called active from +8 up or from −8 down
QUANTITY MEASURED: z-score
Number only, no unit.

Use these answered entries as a reference point.
[[record]]
compound = "CCOC(=O)C[C@H]1[C@H](OC(=O)c2cc3ccccc3oc2=O)[C@@H](NC(=O)c2ccccc2)c2cc(OCCCO)ccc2N1C(=O)c1ccc2ccccc2n1"
quantity_measured = "z-score"
endpoint_value = 0.599

[[record]]
compound = "C=C[C@H](CO[Si](CC)(CC)CC)N(Cc1ccc(OC(C)=O)c(OC)c1)S(=O)(=O)c1ccc(Br)cc1"
quantity_measured = "z-score"
endpoint_value = -1.39

[[record]]
compound = "Cc1ccc(S[C@]2(C(=O)NCCCN(C)C)CC(=O)N(Cc3ccccc3C(F)(F)F)[C@@H]2c2ccc(CO)cc2)cc1"
quantity_measured = "z-score"
endpoint_value = -0.0133


For reference, reported z-score for C[C@H]1C2[C@H](Cc3ccccc3)NC(=O)[C@]23C(=O)N[C@H](Cc2ccccc2)C(=O)N2CCC[C@H]2C(=O)NC/C=C\C/C=C/C3[C@@H]2O[C@]12C (some centres not stated) stands at -2.52

For reference, reported z-score for `C=CCNC(=O)[C@H]1[C@@H]2C(=O)O[C@@H](c3ccccc3)[C@@H](c3ccccc3)N2[C@@H](c2ccccc2OCCO)[C@]12C(=O)Nc1ccc(C#CCC(C(=O)OC)C(=O)OC)cc12` stands at 0.909

For reference, reported z-score for `[N-]=[N+]=NCc1ccccc1C[C@]1(C(=O)N2CCCCC2)N=C(c2ccc(OCCCO)cc2)O[C@H]1c1ccccc1N=[N+]=[N-]` stands at 6.26

For reference, reported z-score for O=C1C2C=CC(C(O)c3cccc4ccccc34)N(Nc3ccccc3F)C2C(=O)N1c1ccccc1 (configuration not stated) stands at 1.05
